Task for the reader: assign each of the following sequences its reported pIC50.
Biological target: HLA-A*11:01
Test: IEDB peptide-MHC binding, purified MHC/competitive/fluorescence; bounds were set here for any values at or beyond the usual limits of such assays
Conditions: source organism: Variola virus
Give bare numbers, as −log10 of the molar value.

LTGGTGVGK; 6.00

// next entry
Please report the measured pIC50 for IIIAVARKH
4.84

---

Target: HLA-B*40:01
Experiment: IEDB peptide-MHC binding, purified MHC/direct/fluorescence; filed as Kd, often an IC50 or EC50 that approximates it; bounds were set here for any values at or beyond the usual limits of such assays
Conditions: source organism: Yersinia enterocolitica
outcome.measure: Kd

Give reported Kd value for YIFRNTINM
≥ 20 µM

Taken from the Immune Epitope Database (IEDB).
